Target: Purine nucleoside phosphorylase (Bos taurus)
Sequence (P55859 whole entry): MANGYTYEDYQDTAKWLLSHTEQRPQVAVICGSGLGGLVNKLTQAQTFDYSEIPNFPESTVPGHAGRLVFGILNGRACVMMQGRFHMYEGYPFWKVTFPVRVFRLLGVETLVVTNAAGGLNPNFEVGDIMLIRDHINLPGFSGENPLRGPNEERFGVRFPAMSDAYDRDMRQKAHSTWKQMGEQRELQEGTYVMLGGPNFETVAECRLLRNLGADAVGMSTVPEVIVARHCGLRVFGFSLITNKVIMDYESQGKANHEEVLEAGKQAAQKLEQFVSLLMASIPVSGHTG
Test: biochemical
Description: Inhibitory activity against calf spleen purine nucleoside phosphorylase (PNP) using 2-amino-6-mercapto-7-methyl purine ribonucleoside (MESG) as substrate.
pKi: −log10 of the molar value.
Measured endpoint: pKi

                                   molecule  readout_number
0         Nc1nc(O)c2[nH]cc(Cc3ccccc3Cl)c2n1            7.84
1        Nc1nc(O)c2[nH]cc(Cc3ccc(O)cc3)c2n1            7.46
2  Nc1nc2c(Cc3cccnc3)c[nH]c2c(=O)[nH]1 [PELDESINE]            8.51
3  Nc1nc(O)c2[nH]cc(C(CC(=O)O)c3ccccc3)c2n1 (centres undefined)            7.21
